For each of the compounds below, state its pIC50.
# tested-system: Lysyl oxidase homolog 2 (Homo sapiens)
# Sequence (Q9Y4K0 whole entry): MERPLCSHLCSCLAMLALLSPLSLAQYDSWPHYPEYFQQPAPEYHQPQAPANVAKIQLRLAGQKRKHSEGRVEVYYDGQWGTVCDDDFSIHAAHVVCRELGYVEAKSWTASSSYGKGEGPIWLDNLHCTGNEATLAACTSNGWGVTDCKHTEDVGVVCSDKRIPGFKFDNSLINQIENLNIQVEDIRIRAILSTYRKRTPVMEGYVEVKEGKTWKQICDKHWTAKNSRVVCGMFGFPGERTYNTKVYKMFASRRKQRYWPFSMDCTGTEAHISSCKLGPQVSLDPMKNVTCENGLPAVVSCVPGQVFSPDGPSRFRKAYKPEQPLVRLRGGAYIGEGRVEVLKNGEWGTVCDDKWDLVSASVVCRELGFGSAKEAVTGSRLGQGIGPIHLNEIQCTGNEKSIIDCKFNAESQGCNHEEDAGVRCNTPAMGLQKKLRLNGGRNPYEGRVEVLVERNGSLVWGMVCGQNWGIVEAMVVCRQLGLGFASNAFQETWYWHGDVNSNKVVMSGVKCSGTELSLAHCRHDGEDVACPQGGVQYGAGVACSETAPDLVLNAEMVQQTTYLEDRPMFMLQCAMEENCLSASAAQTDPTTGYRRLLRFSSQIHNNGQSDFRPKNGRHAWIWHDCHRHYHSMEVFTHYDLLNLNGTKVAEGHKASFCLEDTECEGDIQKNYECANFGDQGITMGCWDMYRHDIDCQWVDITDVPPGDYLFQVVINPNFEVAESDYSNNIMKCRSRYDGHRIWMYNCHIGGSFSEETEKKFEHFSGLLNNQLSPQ
# assay-info: Inhibition of human LOXL2 expressed in CHO cells assessed as reduction in amine oxidase activity incubated for 2 hrs by Amplex red based fluorescence assay
pIC50: −log10 of the molar value.

Observed pIC50 on Lysyl oxidase homolog 2 (Homo sapiens) for CC(C)(C)OC(=O)N1CCN(C(=O)Cn2ccc3c(Oc4cc(CN)cc(C(F)(F)F)n4)cccc32)CC1 , please.
> 6.52

Hello, I am looking for reported pIC50 with Lysyl oxidase homolog 2 (Homo sapiens) for NCc1cc(O[C@@H]2CCCN(C(=O)Nc3ccccc3)C2)nc(C(F)(F)F)c1 . Could you help?
6.00 to 6.52
